Please go through the items and note down their MIC.
system: Staphylococcus aureus; assay: Antibacterial activity against Staphylococcus aureus 503 after 24 hrs by two-fold serial dilution method; type: functional; conditions: Staphylococcus aureus, 503, 24 h

Incoming: Fill in: MIC of O=C(N/N=C/c1cn(-c2ccc([N+](=O)[O-])cc2[N+](=O)[O-])nc1-c1cccc(Cl)c1)c1ccco1 is ___
Outgoing: > 64 µg/mL

Incoming: Using the record for O=C(N/N=C/c1cn(-c2ccc([N+](=O)[O-])cc2[N+](=O)[O-])nc1-c1cccc(Br)c1)c1ccco1 , report its MIC.
Outgoing: > 64 µg/mL

Incoming: I am curious: what MIC value has been reported for O=C(N/N=C/c1cn(-c2ccc([N+](=O)[O-])cc2[N+](=O)[O-])nc1-c1ccccc1Br)c1ccco1 ?
Outgoing: > 64 µg/mL

* * *

Provide the reported MIC of each item.
tested on: Staphylococcus aureus; test: Antibacterial activity against Staphylococcus aureus 503 after 24 hrs by two-fold serial dilution method; format: functional; settings: Staphylococcus aureus, 503, 24 h
# number only, unit µg/mL dropped from output

Incoming: What value of measured MIC is listed for N=C(N)N/N=C/c1cn(-c2ccccc2)nc1-c1cccc(Cl)c1 ?
Outgoing: 2

Incoming: Which MIC reading was recorded for the molecule N=C(N)N/N=C/c1cn(-c2ccc([N+](=O)[O-])cc2[N+](=O)[O-])nc1-c1ccccc1[N+](=O)[O-] ?
Outgoing: 16

Incoming: Which MIC is listed for N=C(N)N/N=C/c1cn(-c2ccc([N+](=O)[O-])cc2[N+](=O)[O-])nc1-c1ccc(Cl)cc1 ?
Outgoing: 2

* * *

test system: Escherichia coli; test: Antibacterial activity against Escherichia coli KCTC 1924 after 24 hrs by two-fold serial dilution method; type: functional; conditions: KCTC 1924, 24 h
measured quantity: MIC (µg/mL)
Please reply with the bare figure in µg/mL and do not write the unit itself.

Incoming: Reported MIC for N=C(N)N/N=C/c1cn(-c2ccccc2)nc1-c1ccc(F)cc1 : what is it?
Outgoing: 8

Incoming: Reported MIC for COc1c(N2CCNC(C)C2)c(F)cc2c(=O)c(C(=O)O)cn(C3CC3)c12 (configuration not stated) : what is it?
Outgoing: 2

Incoming: MIC lookup needed for N=C(N)N/N=C/c1cn(-c2ccc([N+](=O)[O-])cc2[N+](=O)[O-])nc1-c1cccc(Br)c1 , thanks.
Outgoing: 2

Incoming: Requested field: MIC. Item: N=C(N)N/N=C/c1cn(-c2ccc([N+](=O)[O-])cc2[N+](=O)[O-])nc1-c1ccccc1Cl
Outgoing: 4

Incoming: Which value of MIC has been reported for Cc1ccc(-c2nn(-c3ccc([N+](=O)[O-])cc3[N+](=O)[O-])cc2/C=N/NC(=N)N)cc1 in the records?
Outgoing: 2

Incoming: What value of MIC has been recorded for this entry: Cc1cccc(-c2nn(-c3ccc([N+](=O)[O-])cc3[N+](=O)[O-])cc2/C=N/NC(=N)N)c1
Outgoing: 2

* * *

test system: Staphylococcus aureus; experiment: Antibacterial activity against methicillin-resistant Staphylococcus aureus CCARM 3167 after 24 hrs by two-fold serial dilution method; assay type: functional; conditions: CCARM 3167, 24 h
Field: MIC. Provide a value for each of the molecules that follow.
Report as a plain number; the unit µg/mL is understood.

Incoming: Looking for the measured MIC of N=C(N)N/N=C/c1cn(-c2ccc([N+](=O)[O-])cc2[N+](=O)[O-])nc1-c1cccc(Cl)c1 , can you help?
Outgoing: 2

Incoming: Consider the molecule shown here: Cc1ccc(-c2nn(-c3ccccc3)cc2/C=N/NC(=N)N)cc1 What is its recorded MIC?
Outgoing: 2

Incoming: What value of measured MIC is listed for Cc1cccc(-c2nn(-c3ccc([N+](=O)[O-])cc3[N+](=O)[O-])cc2/C=N/NC(=N)N)c1 ?
Outgoing: 2

Incoming: MIC lookup needed for N=C(N)N/N=C/c1cn(-c2ccc([N+](=O)[O-])cc2[N+](=O)[O-])nc1-c1ccccc1F , thanks.
Outgoing: 8

Incoming: Bench note: what MIC did Cc1ccc(-c2nn(-c3ccc([N+](=O)[O-])cc3[N+](=O)[O-])cc2/C=N/NC(=N)N)cc1 show?
Outgoing: 2

Incoming: MIC lookup needed for COc1ccc(-c2nn(-c3ccc([N+](=O)[O-])cc3[N+](=O)[O-])cc2/C=N/NC(=N)N)cc1 , thanks.
Outgoing: 4

* * *

Give MIC for every item shown.
test system: Staphylococcus aureus; experiment: Antibacterial activity against quinolone-resistant Staphylococcus aureus CCARM 3519 after 24 hrs by two-fold serial dilution method; format: functional; conditions: CCARM 3519, 24 h

Incoming: Please state recorded MIC (tested on Staphylococcus aureus) of O=C(N/N=C/c1cn(-c2ccc([N+](=O)[O-])cc2[N+](=O)[O-])nc1-c1ccccc1Br)c1ccco1
Outgoing: > 64 µg/mL

Incoming: Notebook entry, Staphylococcus aureus assay: MIC of O=C(N/N=C/c1cn(-c2ccc([N+](=O)[O-])cc2[N+](=O)[O-])nc1-c1ccccc1F)c1ccco1 = ?
Outgoing: > 64 µg/mL

Incoming: Short answer please: MIC, Staphylococcus aureus, entry O=C(N/N=C/c1cn(-c2ccc([N+](=O)[O-])cc2[N+](=O)[O-])nc1-c1cccc(Br)c1)c1ccco1
Outgoing: > 64 µg/mL

* * *

system: Staphylococcus aureus; assay: Antibacterial activity against Staphylococcus aureus 503 after 24 hrs by two-fold serial dilution method; format: functional; settings: Staphylococcus aureus, 503, 24 h
Exercise: state measured MIC for each of the compounds provided.

Incoming: Please give the measured MIC for this compound: Cc1ccc(-c2nn(-c3ccc([N+](=O)[O-])cc3[N+](=O)[O-])cc2/C=N/NC(=O)c2ccco2)cc1
Outgoing: > 64 µg/mL

Incoming: Which measured MIC value corresponds to O=C(N/N=C/c1cn(-c2ccc([N+](=O)[O-])cc2[N+](=O)[O-])nc1-c1ccccc1F)c1ccco1 ?
Outgoing: > 64 µg/mL

Incoming: Query: MIC; subject: N=C(N)N/N=C/c1cn(-c2ccccc2)nc1-c1ccc(Cl)cc1
Outgoing: > 64 µg/mL

Hello, the source for this data is ChEMBL document CHEMBL3627681, in case you need it.
